tested on: EKVX NSCLC; test: NCI-60 one-dose screen, 48 h (100 = growth as untreated, 0 = no growth, -100 = all killed); details: 10 µM unless noted
This is part of a sample that, as a whole, favours compounds with a hit. Of some 83,000 tested, about 20% had one in any assay.
Tick met if growth is 20% or greater. Tick not met if growth is less than 20%.

Consider the worked cases shown below.
- N#Cc1c(-c2ccc(F)cc2)nc(SCc2ccccc2)nc1N1CCNCC1: not met
- Cc1cnc2ccc(Oc3ccccc3-c3ccccc3)nn12: met
- Nc1nnc(-c2cncc(Br)c2)c(-c2c[nH]c3ccc(Cl)cc23)n1: met
- O=C(NNC(=O)c1ccc(OCc2nc3ccc(Cl)cc3[nH]2)cc1)Nc1ccc(Cl)c(Cl)c1: met
- CCCSc1nnc(-c2c(C)nc3sccn23)o1: met
- Cc1ccc(C2CC(c3ccc(NC(=S)Nc4ccccc4)cc3)=NN2c2ccc(S(N)(=O)=O)cc2)cc1 (centres undefined): not met
- C=CC(=O)Nc1ccc(C(=O)/C=C/c2ccc(N(C)C)cc2)c(O)c1: not met
- N#CC1=C(c2cccs2)Nc2c(c(-c3ccccc3)nn2-c2ccccc2)C12C(=O)Nc1ccc(Br)cc12 (centres undefined): not met
- C[C@@H]1CN(c2ccc3ncc(C#Cc4cncc(C(=O)Nc5ccc(CN6CCN(C)CC6)c(C(F)(F)F)c5)c4)n3n2)C[C@@H](C)O1: not met
- COc1cc(CNC(=O)C[C@H](C)CCC=C(C)C)ccc1OCc1cn(-c2ccccc2F)nn1: met

[ask] growth >= 20% for CN(C)c1nc(NCCNS(=O)(=O)c2ccc(C3=Nc4c(N)nc(N)nc4NC(c4ccc(Cl)cc4)C3)cc2)nc(N2CCOCC2)n1 (centres undefined) ?
[reply] met

[ask] growth >= 20% for `O=C(Nc1nc2ccc([N+](=O)[O-])cc2s1)Nc1ccccc1F` ?
[reply] not met

[ask] growth >= 20% for `N#Cc1cc(-c2ccnc(Nc3ccc(N4CCN(C5COC5)CC4)cc3)n2)ccc1N1CCCC1` ?
[reply] met

[ask] growth >= 20% for `COc1ccc(-c2cc(C(=O)N=Nc3c(O)[nH]c4ccc(Cl)cc34)c3ccccc3n2)cc1` ?
[reply] met

[ask] growth >= 20% for `Cc1ccc(Cl)cc1NC(=O)N/C(N)=N/c1nc2ccccc2s1` ?
[reply] not met

[ask] growth >= 20% for `O=[N+]([O-])c1cccc(-c2nnc3c(/C=C/c4ccc(F)cc4)nc4ccccc4n23)c1` ?
[reply] met

[ask] growth >= 20% for `O=C(CSc1nc2c(c(=O)[nH]1)CCCC2)Nc1ccccc1C(=O)O` ?
[reply] met

[ask] growth >= 20% for `O=C(CSc1nc2ccccc2c(=O)[nH]1)NNC(=O)c1ccccc1Cl` ?
[reply] met

[ask] growth >= 20% for CCN(C(=O)CN1C(=O)/C(=C/c2ccco2)SC1=S)C1CCS(=O)(=O)C1 (centres undefined) ?
[reply] met

* * *

growth: recorded values
tested on: HCC-2998 colon; assay: NCI-60 one-dose screen, 48 h (100 = growth as untreated, 0 = no growth, -100 = all killed); settings: 1 µM
About 83,000 compounds went through this panel and 20% of them were active in at least one assay; those are over-represented in the sample as a whole.
Express your answer in %, writing the number without its unit.

// worked examples, growth included
• CC/C(=C(\c1ccc(O)cc1)c1ccc(OCCNC)cc1)c1ccccc1 = 106
• CC/C(=C(/c1ccc(O)cc1)c1ccc(OCCN(C)C(=O)CCOCCNC(=O)Cc2ccc3c(c2)CN([C@@H]2CCC(=O)NC2=O)C3=O)cc1)c1ccccc1 = 97.3
• CC/C(=C(\c1ccc(O)cc1)c1ccc(OCCN(C)C(=O)COCCNC(=O)Cc2ccc3c(c2)CN([C@@H]2CCC(=O)NC2=O)C3=O)cc1)c1ccccc1 = 64.5
• CC/C(=C(\c1ccc(O)cc1)c1ccc(OCCN(C)C(=O)CCOCCNC(=O)c2ccc3c(c2)CN([C@@H]2CCC(=O)NC2=O)C3=O)cc1)c1ccccc1 = 99

[ask] Tell me its growth given `CC/C(=C(/c1ccc(O)cc1)c1ccc(OCCN(C)C(=O)COCCOCCNC(=O)Cc2ccc3c(c2)CN([C@@H]2CCC(=O)NC2=O)C3=O)cc1)c1ccccc1` as the entry.
[reply] 97.3

* * *

tested on: UACC-257 melanoma; assay: NCI-60 one-dose screen, 48 h (100 = growth as untreated, 0 = no growth, -100 = all killed); conditions: 10 µM unless noted
About 83,000 compounds went through this panel and 20% of them were active in at least one assay; those are over-represented in the sample as a whole. Active and inactive are the calls of the source. Rule for the calls: active = growth percent below 10; inactive = the rest.
reported property: growth

// worked examples, growth included
• C#CCN(C)CCCOc1ccc(N(CC)C(=O)c2cc(C(C)C)c(O)cc2O)cc1Cl = -11.6% (active)
• Cc1ccc2c(c1)/C(=C/C(=O)c1cc3ccccc3oc1=O)C(=O)N2 = 73.3% (inactive)
• COc1ccc(/C=C/c2nc3ccccc3c(=O)n2CC(=O)Nc2ccccc2)cc1 = 93.5% (inactive)
• CC1=C(C(=O)OCc2ccccc2)C(c2ccc(N(C)C)cc2)n2c(nc3ccccc32)N1 (stereo not given) = 85.7% (inactive)

Continue with the compound presented below.
[ask] Report growth on UACC-257 melanoma for this entry: Oc1ccc(Cl)c(Nc2ncnc3c2cnn3CC(Cl)c2ccc(Br)cc2)c1 (stereo not given)
[reply] 80.1% (inactive)

* * *

growth: recorded values
tested on: SK-MEL-2 melanoma; experiment: NCI-60 one-dose screen, 48 h (100 = growth as untreated, 0 = no growth, -100 = all killed); conditions: 10 µM
This is part of a sample that, as a whole, favours compounds with a hit. Of some 83,000 tested, about 20% had one in any assay.
Express your answer in %, writing the number without its unit.

// worked examples, growth included
• CC/C(=C(\c1ccc(O)cc1)c1ccc(OCCNC)cc1)c1ccccc1 = 98.7
• CC/C(=C(/c1ccc(O)cc1)c1ccc(OCCN(C)C(=O)COCCOCCNC(=O)Cc2ccc3c(c2)CN([C@@H]2CCC(=O)NC2=O)C3=O)cc1)c1ccccc1 = 64.1
• CC/C(=C(/c1ccc(O)cc1)c1ccc(OCCN(C)C(=O)COCCOCCNC(=O)c2ccc3c(c2)CN([C@@H]2CCC(=O)NC2=O)C3=O)cc1)c1ccccc1 = 93.5
• CC/C(=C(\c1ccc(O)cc1)c1ccc(OCCN(C)C(=O)COCCNC(=O)Cc2ccc3c(c2)CN([C@@H]2CCC(=O)NC2=O)C3=O)cc1)c1ccccc1 = 56.8

Continue with the molecule presented below.
[ask] Tell me its growth given `CC/C(=C(\c1ccc(O)cc1)c1ccc(OCCN(C)C(=O)CCOCCNC(=O)c2ccc3c(c2)CN([C@@H]2CCC(=O)NC2=O)C3=O)cc1)c1ccccc1` as the entry.
[reply] 101

* * *

system: BT-549 breast; experiment: NCI-60 one-dose screen, 48 h (100 = growth as untreated, 0 = no growth, -100 = all killed); conditions: 1 µM
The panel holds about 83,000 compounds, 20% with a hit somewhere; the sample as a whole holds those more often.
growth: recorded values
Express your answer in %, writing the number without its unit.

// worked examples, growth included
- CC/C(=C(/c1ccc(O)cc1)c1ccc(OCCN(C)C(=O)COCCOCCNC(=O)c2ccc3c(c2)CN([C@@H]2CCC(=O)NC2=O)C3=O)cc1)c1ccccc1: 5.04
- CC/C(=C(/c1ccc(O)cc1)c1ccc(OCCN(C)C(=O)COCCOCCNC(=O)Cc2ccc3c(c2)CN([C@@H]2CCC(=O)NC2=O)C3=O)cc1)c1ccccc1: -20.3
- CC/C(=C(\c1ccc(O)cc1)c1ccc(OCCN(C)C(=O)COCCNC(=O)Cc2ccc3c(c2)CN([C@@H]2CCC(=O)NC2=O)C3=O)cc1)c1ccccc1: -25.9

Continue with the compound presented below.
[ask] Tell me its growth given `CC/C(=C(\c1ccc(O)cc1)c1ccc(OCCN(C)C(=O)CCOCCNC(=O)c2ccc3c(c2)CN([C@@H]2CCC(=O)NC2=O)C3=O)cc1)c1ccccc1` as the entry.
[reply] 9.93

* * *

test system: MCF7 breast; experiment: NCI-60 one-dose screen, 48 h; conditions: 10 µM unless noted
The panel holds about 83,000 compounds, 20% with a hit somewhere; the sample as a whole holds those more often. The source made the active and inactive calls. The calls were made as follows: active = growth percent below 10; inactive = the rest.
Parameter call: string, one of Yes (active), No (inactive)

Consider the worked cases shown below.
* O=C(Nc1ccc(-c2ccc3c(c2)NC(=O)/C3=C\c2ccc[nH]2)cc1)Nc1ccc(Cl)c(C(F)(F)F)c1 | Yes
* FC(F)(F)c1cc2c(Cl)ncnc2n1CCC1CCOCC1 | No
* C/C(=N\Nc1ccc(S(N)(=O)=O)cc1)c1cnn(-c2cc(=O)[nH]c3ccc(Br)cc23)c1C | No

[ask] Hey, what did the test say about Cc1cc(=O)oc2cc(OCC(O)CNN3C(=O)c4cccc5c(N6CCN(C)CC6)ccc(c45)C3=O)ccc12 (centres undefined) ?
[reply] No

[ask] Hey, what did the test say about O=C(OCCOCCO)N(c1cccc(Br)c1)c1nc(SCCN2CCOCC2)nc2c1cnn2CC(Cl)c1ccc(Br)cc1 (centres undefined) ?
[reply] Yes

[ask] Hey, what did the test say about CCOc1ccc2[nH]c(=O)c(C(c3nnnn3CC3CCCO3)N3CCN(Cc4ccccc4)CC3)cc2c1 (centres undefined) ?
[reply] No

[ask] Hey, what did the test say about COC(=O)c1c(C(=O)OC)c2ccc3c4ccccc4ccc3n2c1C(=O)C(C)Br (centres undefined) ?
[reply] Yes

[ask] Hey, what did the test say about `COC(=O)c1cc(C(=O)C(C)(C)C)n2c3ccccc3c3ccccc3c12` ?
[reply] No

[ask] Hey, what did the test say about `COc1ccc(N=Nc2c(N)nn3c(-c4ccc5c(c4)C=S=C5)ccnc23)cc1` ?
[reply] No
